Kindly supply the reported % Inhibition values for the records listed here.
- System: human SMAD7 mRNA
- Assay notes: Antisense inhibition of human SMAD7 mRNA expression in Hep3B cells by 3-10-3 cEt gapmers, 10,000 nM, electroporation (Example 2)
- Type: cell-based
- Assay context: Hep3B cells, electroporation with 10,000 nM antisense oligonucleotide, approximately 24 hours, SMAD7 mRNA by RT-PCR (RTS5062), relative to untreated control cells
Strand notation (5' to 3'): a small letter for the sugar, then the base; units joined by * are phosphorothioate-linked, units joined directly phosphodiester-linked; [ ] holds rarer units or linkages, { } end groups; capitals alone tell only the bases. k = constrained ethyl (cEt); [5mC] = 5-methylcytosine; d = 2'-deoxy (DNA)
Please respond with the number in % and leave the unit unwritten.

Ask: Returns the measured % Inhibition for the input substance. Input: 799965 (antisense k[5mC]*kT*k[5mC]*d[5mC]*dA*dG*dT*dG*dA*dA*dG*dT*dG*kA*kG*kA) [compound 799965]
Reply: 0

Ask: Returns the measured % Inhibition for the input substance. Input: 830157 (antisense kG*kA*kA*d[5mC]*dT*dG*dT*dG*d[5mC]*d[5mC]*dT*d[5mC]*dA*kG*k[5mC]*kA) [compound 830157]
Reply: 70

Ask: Returns the measured % Inhibition for the input substance. Input: 799472 (antisense kA*kG*k[5mC]*d[5mC]*dA*dT*dA*d[5mC]*d[5mC]*dT*d[5mC]*d[5mC]*dA*kT*k[5mC]*kT) [compound 799472]
Reply: 31

Ask: Returns the measured % Inhibition for the input substance. Input: 800042 (kT*kG*kT*d[5mC]*dA*dG*d[5mC]*d[5mC]*dA*d[5mC]*d[5mC]*dT*dA*kG*kG*k[5mC]; antisense) [compound 800042]
Reply: 0

Ask: Returns the measured % Inhibition for the input substance. Input: 800080 (antisense kG*kG*kG*d[5mC]*dT*dA*d[5mC]*d[5mC]*dT*dT*dA*dA*d[5mC]*kA*kA*kA) [compound 800080]
Reply: 14

Ask: Returns the measured % Inhibition for the input substance. Input: 798768 (kG*kA*kG*dA*dT*d[5mC]*d[5mC]*dG*dG*d[5mC]*d[5mC]*dA*d[5mC]*k[5mC]*kT*kG; antisense) [compound 798768]
Reply: 42

Ask: Returns the measured % Inhibition for the input substance. Input: 799253 (antisense k[5mC]*kT*k[5mC]*d[5mC]*dA*dA*dA*dG*dG*dT*dG*d[5mC]*dG*k[5mC]*kG*kG) [compound 799253]
Reply: 0

Ask: Returns the measured % Inhibition for the input substance. Input: 799862 (k[5mC]*k[5mC]*k[5mC]*dA*d[5mC]*d[5mC]*dG*d[5mC]*dA*dT*dG*d[5mC]*dG*kA*kT*k[5mC]; antisense) [compound 799862]
Reply: 14

Ask: Returns the measured % Inhibition for the input substance. Input: 798767 (kT*k[5mC]*k[5mC]*dG*dG*d[5mC]*d[5mC]*dA*d[5mC]*d[5mC]*dT*dG*dA*kA*k[5mC]*kA; antisense) [compound 798767]
Reply: 0

Ask: Returns the measured % Inhibition for the input substance. Input: 830199 (antisense kA*kA*kG*dG*d[5mC]*dT*dA*d[5mC]*dA*d[5mC]*d[5mC]*dA*dA*kA*kG*kA) [compound 830199]
Reply: 37

Ask: Returns the measured % Inhibition for the input substance. Input: 830062 (k[5mC]*k[5mC]*kT*dA*d[5mC]*d[5mC]*dA*d[5mC]*d[5mC]*d[5mC]*d[5mC]*dT*dG*kT*kG*kA; antisense) [compound 830062]
Reply: 17

Ask: Returns the measured % Inhibition for the input substance. Input: 799331 (kA*kG*kG*dG*dT*dA*dT*dG*d[5mC]*dA*d[5mC]*dA*d[5mC]*kT*k[5mC]*kT; antisense) [compound 799331]
Reply: 1
